measurement type: logP

molecule smiles: COc1cc(C(=O)Nc2ccc3nn(C4CCCCC4)nc3c2)cc(OC)c1OC
measured number: 4.45

* * *

experiment summary: from Caliendo, G., Novellino, E., Santagada, V., Silipo, C., & Vittoria, A. (1991). Structure-activity relationships in a set of antimicrobial. In QSAR, Rational Approaches to the Design of Bioactive …
compounds and their reported logP

molecule smiles: O=C(Nc1ccc2nn(C3CCCCC3)nc2c1)c1ccccc1
logP: 4.45
--
molecule smiles: COc1cc(C(=O)Nc2ccc3nn(C)nc3c2)cc(OC)c1OC
logP: 2.38
--
molecule smiles: Cn1nc2ccc(NC(=O)CCl)cc2n1
logP: 1.22
--
molecule smiles: O=C(Nc1ccc2nn(C3CCCCC3)nc2c1)c1ccc([N+](=O)[O-])cc1
logP: 4.57
--
molecule smiles: Cn1nc2ccc(NC(=O)c3ccc([N+](=O)[O-])cc3)cc2n1
logP: 2.53
--
molecule smiles: O=C(Nc1ccc2nn(C3CCCCC3)nc2c1)C(Cl)Cl
logP: 3.87
--
molecule smiles: O=C(Nc1ccc2nn(C3CCCCC3)nc2c1)c1ccc(Cl)c(Cl)c1
logP: 5.85
--
molecule smiles: Cn1nc2ccc(NC(=O)c3ccccc3)cc2n1
logP: 2.44
--
molecule smiles: Cn1nc2ccc(NC(=O)c3ccc(Cl)cc3)cc2n1
logP: 3.13
